Tested on: HCMV (strain AD169)
test-details: Inhibition of HCMV replication, ELISA assay (Hs-68 cells)
Format: cell-based, Human Cytomegalovirus (HCMV)
condition-summary: Human betaherpesvirus 5, AD169, Hs68, Group 1 Table 2 entries, read-out: ELISA CMV EC50
pEC50: −log10 of the molar value.
The entries below are paired with their reported pEC50.
endpoint: pEC50

>>> recorded_value("Nc1nc(-c2ccc(NC(=O)CCN(Cc3ccccc3)CC3CCCCC3)cc2)cs1")
5.33
>>> recorded_value("C[C@@H](c1ccccc1)N(CCC(=O)Nc1ccc(-c2csc(N)n2)cc1)Cc1ccccc1")
5.51
>>> recorded_value("Nc1nc(-c2ccc(NC(=O)CCN(C(=O)c3cccnc3)C3CCc4ccccc43)cc2)cs1 (stereo not shown)")
4.82
>>> recorded_value("CC(C)(C)OC(=O)N(CCC(=O)Nc1ccc(-c2csc(N)n2)cc1)Cc1ccccc1")
4.95

---

Test system: HSV-1 strain F or KOS
test-details: Inhibition of herpes simplex virus (HSV-1) replication in cell culture (BHK-21 cells, glycoprotein C ELISA)
Type: cell-based
condition-summary: Human alphaherpesvirus 1, BHK-21, Group 1 Table 1 entries
Protocol: B) Inhibition of Herpes Simplex Virus (HSV-1) Replication in Cell Culture […] Thereafter, the cells were infected with HSV-1 strain F or KOS (multiplicity of infection =0.05 PFU/cell) in 50 μL of α-MEM supplemented with 2% heat inactivated FBS. […] After 24 hours of incubation at 37°, the extent of viral replication was determined by an ELISA assay; for instance, the following assay that detects the late glycoprotein C of HSV-1. […]
endpoint: EC50 (nM)

>>> recorded_value("Cc1cccc(C)c1C(=O)N(CC(=O)Nc1ccc(-c2csc(N)n2)cc1)Cc1ccccc1")
11
>>> recorded_value("Nc1nc(-c2ccc(NC(=O)CN(Cc3ccccc3)S(=O)(=O)N3CCOCC3)cc2)cs1")
120
>>> recorded_value("C[C@H](c1ccccc1)N(CC(=O)Nc1ccc(-c2csc(N)n2)cc1)C(=O)C1CCCCC1")
13
>>> recorded_value("CC1(C(=O)N(CC(=O)Nc2ccc(-c3csc(N)n3)cc2)Cc2ccccc2)CCCCC1")
6
>>> recorded_value("Nc1nc(-c2ccc(NC(=O)CNCc3cccs3)cc2)cs1")
3700
>>> recorded_value("CC(C)(C)OC(=O)N(CC(=O)Nc1ccc(-c2csc(N)n2)cc1)Cc1ccc(Cl)cc1")
25
>>> recorded_value("Nc1nc(-c2ccc(NC(=O)CN(Cc3cccc(F)c3)C(=O)c3ccncc3)cc2)cs1")
22
>>> recorded_value("Nc1nc(-c2ccc(NC(=O)CNCc3ccc(Cl)cc3)cc2)cs1")
42000

---

Tested on: HCMV (strain AD169)
test-details: Inhibition of HCMV replication, plaque reduction assay (PRA, Hs-68 cells)
Assay type: cell-based, Human Cytomegalovirus (HCMV)
condition-summary: Human betaherpesvirus 5, AD169, Hs68, Group 1 Table 1 entries, read-out: PRA CMV EC50
The entries below are paired with their reported EC50.
endpoint: EC50

>>> recorded_value("Nc1nc(-c2ccc(NC(=O)CN(Cc3ccccc3)C(=O)Cc3ccccc3)cc2)cs1")
"15 µM"
>>> recorded_value("C[C@@H](c1ccccc1)N(CC(=O)Nc1ccc(-c2csc(N)n2)cc1)C(=O)c1cccnc1")
"18 µM"
>>> recorded_value("Nc1nc(-c2ccc(NC(=O)CN(Cc3ccccc3)Cc3ccccc3)cc2)cs1")
"13 µM"
>>> recorded_value("CC(C)(C)C(=O)N(CC(=O)Nc1ccc(-c2csc(N)n2)cc1)Cc1ccccc1")
"34 µM"
>>> recorded_value("Nc1nc(-c2ccc(NC(=O)CN(Cc3cccs3)C(=O)C3CCCCC3)cc2)cs1")
"11 µM"
>>> recorded_value("Nc1nc(-c2ccc(NC(=O)CNCCCc3ccccc3)cc2)cs1")
"> 14 µM"
>>> recorded_value("Nc1nc(-c2ccc(NC(=O)CNCc3ccc(F)cc3)cc2)cs1")
"16 µM"
>>> recorded_value("Nc1nc(-c2ccc(NC(=O)CN(CC3CCCCC3)C(=O)C3CCNCC3)cc2)cs1")
"38 µM"
>>> recorded_value("C[C@H](NCC(=O)Nc1ccc(-c2csc(N)n2)cc1)c1ccccc1")
"> 30 µM"
